IC50 listing for selected compounds.
Target: Kras and SOS1 (biotin-tagged human Kras loaded with GDP, His-tagged human SOS1) (Homo sapiens, UniProt P01116, G12D)
Construct: made in house; host or cells: E. coli (stated for Kras only)
Sequence (P01116 1-188 isoform P01116-2 G12D): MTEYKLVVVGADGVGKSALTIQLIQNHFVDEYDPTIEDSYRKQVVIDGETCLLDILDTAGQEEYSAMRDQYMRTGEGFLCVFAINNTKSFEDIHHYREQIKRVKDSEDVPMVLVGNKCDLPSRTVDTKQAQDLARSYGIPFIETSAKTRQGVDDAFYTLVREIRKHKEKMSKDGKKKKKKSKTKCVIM
Assay: Protein-protein interaction inhibition between Kras and SOS1 (KrasGl2D-SOS PPI) using AlphaScreen
Type: binding
Settings: AlphaScreen; biotin-tagged human Kras loaded with GDP, His-tagged human SOS1; read-out: KRAS G12D-SOS PPI IC50
Positions of bridges follow the written chain, without caps; N, C: chain ends. Non-standard residues stand in square brackets, D forms with d. Residues, ends and D or L forms follow the SMILES beside them. *: point of attachment. hPhe(3-Cl-4-CF3) = N[C@@H](CCc1ccc(C(F)(F)F)c(Cl)c1)C(=O)O; hPhe(4-CF3) = N[C@@H](CCc1ccc(C(F)(F)F)cc1)C(=O)O; 3Oxa8azabicyclo(3.2.1)octane = C1CC2COCC1N2*; NMePhe(4-Cl) = CN[C@@H](Cc1ccc(Cl)cc1)C(=O)O; NMeAla(cPent) = CN[C@@H](CC1CCCC1)C(=O)O; NMeY = CN[C@@H](Cc1ccc(O)cc1)C(=O)O; NMeCha = CN[C@@H](CC1CCCCC1)C(=O)O; NMeChg = CN[C@H](C(=O)O)C1CCCCC1; NMeF = CN[C@@H](Cc1ccccc1)C(=O)O; NMeD = CN[C@@H](CC(=O)O)C(=O)O; NMeL = CN[C@@H](CC(C)C)C(=O)O; NMeV = CN[C@H](C(=O)O)C(C)C; d(β3hA) = C[C@@H](N)CC(=O)O; Pip = O=C(O)[C@@H]1CCCCN1; Piperidide = C1CCN(*)CC1; Ac5c = NC1(C(=O)O)CCCC1; Ac4c = NC1(C(=O)O)CCC1; CF3 = FC(F)(F)*; Sar = CNCC(=O)O
readout kind: IC50

compound: CC[C@H](C)[C@@H]1NC(=O)[C@H](CC2CCCC2)N(C)C(=O)C[C@@H](C)NC(=O)[C@H](C(C)C)N(C)C(=O)C2(CCCC2)NC(=O)[C@@H]2CCCN2C(=O)[C@H](CCc2ccc(C(F)(F)F)c(Cl)c2)NC(=O)CN(C)C(=O)[C@H](CC2CCCCC2)N(C)C(=O)CN(C)C(=O)CN(C)C1=O [Compound 901] (cyclo([Ac5c][NMeV][d(β3hA)][NMeAla(cPent)]I[Sar][Sar][NMeCha][Sar][hPhe(3-Cl-4-CF3)]P))
readout kind: IC50
endpoint result: 35 nM
//
compound: CC[C@H](C)[C@@H]1NC(=O)[C@H](CC(C)C)N(C)C(=O)C[C@@H](C)NC(=O)[C@H](C(C)C)N(C)C(=O)C2(CCC2)NC(=O)[C@@H]2CCCN2C(=O)[C@H](CCc2ccc(C(F)(F)F)c(Cl)c2)NC(=O)CN(C)C(=O)[C@H](CC2CCCCC2)N(C)C(=O)CN(C)C(=O)CN(C)C1=O [Compound 520] (cyclo([Ac4c][NMeV][d(β3hA)][NMeL]I[Sar][Sar][NMeCha][Sar][hPhe(3-Cl-4-CF3)]P))
readout kind: IC50
endpoint result: 17 nM
//
compound: CC[C@H](C)[C@@H]1NC(=O)[C@@H]2CCCCN2C(=O)C[C@@H](C)NC(=O)[C@H](C(C)C)N(C)C(=O)[C@H](Cc2ccccc2)N(C)C(=O)[C@H](CC(C)C)N(C)C(=O)[C@H](CCc2ccc(C(F)(F)F)cc2)NC(=O)CN(C)C(=O)[C@H](Cc2ccc(Cl)cc2)N(C)C(=O)CN(C)C(=O)CN(C)C1=O [Compound 1110] (cyclo(I[Sar][Sar][NMePhe(4-Cl)][Sar][hPhe(4-CF3)][NMeL][NMeF][NMeV][d(β3hA)][Pip]))
readout kind: IC50
endpoint result: 130 nM
//
compound: CC[C@H](C)[C@@H]1NC(=O)[C@H](CC(C)C)N(C)C(=O)C[C@@H](C(=O)N2CCCCC2)N(C)C(=O)[C@H](C(C)C)N(C)C(=O)C2(CCCC2)NC(=O)[C@@H]2CCCN2C(=O)[C@H](CCc2ccc(C(F)(F)F)c(Cl)c2)NC(=O)CN(C)C(=O)[C@H](Cc2ccc(OC(F)(F)F)cc2)N(C)C(=O)CN(C)C(=O)CN(C)C1=O [Compound 1630] ([NMeL]I[Sar][Sar][NMeY](CF3)[Sar][hPhe(3-Cl-4-CF3)]P[Ac5c][NMeV][NMeD]-Piperidide; lactam N-11)
readout kind: IC50
endpoint result: 6.2 nM
//
compound: CC[C@H](C)[C@@H]1NC(=O)[C@H](CC(C)C)N(C)C(=O)C[C@@H](C(=O)N2C3CCC2COC3)N(C)C(=O)[C@H](C2CCCCC2)N(C)C(=O)C2(CCC2)NC(=O)[C@@H]2CCCN2C(=O)[C@H](CCc2ccc(C(F)(F)F)c(Cl)c2)NC(=O)CN(C)C(=O)[C@H](CC2CCCCC2)N(C)C(=O)CN(C)C(=O)CN(C)C1=O [Compound 1936] ([NMeL]I[Sar][Sar][NMeCha][Sar][hPhe(3-Cl-4-CF3)]P[Ac4c][NMeChg][NMeD]-{3Oxa8azabicyclo(3.2.1)octane}; lactam N-11)
readout kind: IC50
endpoint result: 0.68 nM

----------
Target: Kras and SOS1 (biotin-tagged human Kras loaded with GDP, His-tagged human SOS1) (Homo sapiens, UniProt P01116, G12D)
Construct: made in house; host or cells: E. coli (stated for Kras only)
Assay: Protein-protein interaction inhibition between Kras and SOS1 (KrasGl2D-SOS PPI) using AlphaScreen
Assay type: binding
Conditions: AlphaScreen; biotin-tagged human Kras loaded with GDP, His-tagged human SOS1; read-out: KRAS G12D-SOS PPI IC50
Positions of bridges follow the written chain, without caps; N, C: chain ends. Non-standard residues stand in square brackets, D forms with d. Residues, ends and D or L forms follow the SMILES beside them. *: point of attachment. hPhe(3-Cl-4-CF3) = N[C@@H](CCc1ccc(C(F)(F)F)c(Cl)c1)C(=O)O; NMePhe(3-OMe) = CN[C@@H](Cc1cccc(OC)c1)C(=O)O; 3Oxa8azabicyclo(3.2.1)octane = C1CC2COCC1N2*; NMeAbu(4,4,4-F3) = CN[C@@H](CC(F)(F)F)C(=O)O; NMePhe(4-Me) = CN[C@@H](Cc1ccc(C)cc1)C(=O)O; NMeGly(cPent) = CN[C@H](C(=O)O)C1CCCC1; NMe3Pal = CN[C@@H](Cc1cccnc1)C(=O)O; Gly(cPent) = N[C@H](C(=O)O)C1CCCC1; NMeCha = CN[C@@H](CC1CCCCC1)C(=O)O; NMeChg = CN[C@H](C(=O)O)C1CCCCC1; NMeI = CC[C@H](C)[C@H](NC)C(=O)O; dNMeF = CN[C@H](Cc1ccccc1)C(=O)O; NMeD = CN[C@@H](CC(=O)O)C(=O)O; NMeL = CN[C@@H](CC(C)C)C(=O)O; NMeNva = CCC[C@H](NC)C(=O)O; NMeV = CN[C@H](C(=O)O)C(C)C; d(β3hA) = C[C@@H](N)CC(=O)O; NMeS = CN[C@@H](CO)C(=O)O; Morpholide = C1CN(*)CCO1; NMeA = CN[C@@H](C)C(=O)O; Piperidide = C1CCN(*)CC1; Ac5c = NC1(C(=O)O)CCCC1; Aze = O=C(O)[C@@H]1CCN1; NPrGly = CCCNCC(=O)O; Sar = CNCC(=O)O; Propyl = CCC*
# note: exactly 1 nM is not below, so it is No; use Yes for IC50 strictly under it

compound: CC(C)C[C@H]1C(=O)N[C@@H](C2CCCC2)C(=O)N(C)CC(=O)N(C)CC(=O)N(C)[C@@H](CC2CCCCC2)C(=O)N(C)CC(=O)N[C@@H](CCc2ccc(C(F)(F)F)c(Cl)c2)C(=O)N2CCC[C@H]2C(=O)NC2(CCCC2)C(=O)N(C)[C@@H](C(C)C)C(=O)N[C@H](C)CC(=O)N1C [Compound 333] (cyclo([Ac5c][NMeV][d(β3hA)][NMeL][Gly(cPent)][Sar][Sar][NMeCha][Sar][hPhe(3-Cl-4-CF3)]P))
class name: No
--
compound: CCC[C@H]1C(=O)N[C@@H]([C@@H](C)CC)C(=O)N(C)CC(=O)N(C)CC(=O)N(C)[C@@H](CC2CCCCC2)C(=O)N(C)CC(=O)N[C@@H](CCc2ccc(C(F)(F)F)c(Cl)c2)C(=O)N2CCC[C@H]2C(=O)NC2(CCCC2)C(=O)N(C)[C@@H](C2CCCCC2)C(=O)N(C)[C@H](C(=O)N2CCOCC2)CC(=O)N1C [Compound 1996] ([NMeNva]I[Sar][Sar][NMeCha][Sar][hPhe(3-Cl-4-CF3)]P[Ac5c][NMeChg][NMeD]-Morpholide; lactam N-11)
class name: Yes
--
compound: CCCN1CC(=O)N(C)[C@@H](CC2CCCCC2)C(=O)N(C)CC(=O)N[C@@H](CCc2ccc(C(F)(F)F)c(Cl)c2)C(=O)N2CCC[C@H]2C(=O)NC2(CCCC2)C(=O)N(C)[C@@H](C(C)C)C(=O)N[C@H](C)CC(=O)N(C)[C@@H](CC(C)C)C(=O)N[C@@H]([C@@H](C)CC)C(=O)N(C)CC1=O [Compound 405] (cyclo([Ac5c][NMeV][d(β3hA)][NMeL]I[Sar][NPrGly][NMeCha][Sar][hPhe(3-Cl-4-CF3)]P))
class name: No
--
compound: CC[C@H](C)[C@@H]1NC(=O)[C@H](C2CCCC2)N(C)C(=O)C[C@@H](C(=O)N2CCCCC2)N(C)C(=O)[C@H](C(C)C)N(C)C(=O)C2(CCCC2)NC(=O)[C@@H]2CCCN2C(=O)[C@H](CCc2ccc(C(F)(F)F)c(Cl)c2)NC(=O)CN(C)C(=O)[C@H](CC2CCCCC2)N(C)C(=O)CN(C)C(=O)CN(C)C1=O [Compound 393] ([NMeGly(cPent)]I[Sar][Sar][NMeCha][Sar][hPhe(3-Cl-4-CF3)]P[Ac5c][NMeV][NMeD]-Piperidide; lactam N-11)
class name: No
--
compound: CC[C@H](C)[C@@H]1NC(=O)[C@H](CC(C)C)N(C)C(=O)C[C@@H](C(=O)N2CCCCC2)N(C)C(=O)[C@H](C(C)C)N(C)C(=O)C2(CCCC2)NC(=O)[C@@H](Cc2ccccc2)N(C)C(=O)[C@H](CCc2ccc(C(F)(F)F)c(Cl)c2)NC(=O)CN(C)C(=O)[C@H](CC2CCCCC2)N(C)C(=O)[C@@H]2CCN2C(=O)[C@H](C)N(C)C1=O [Compound 1442] ([NMeL]I[NMeA][Aze][NMeCha][Sar][hPhe(3-Cl-4-CF3)][dNMeF][Ac5c][NMeV][NMeD]-Piperidide; lactam N-11)
class name: No
--
compound: CC[C@H](C)[C@@H]1NC(=O)[C@H](CC(C)C)N(C)C(=O)C[C@@H](C(=O)N(C)C)N(C)C(=O)[C@H]([C@@H](C)CC)N(C)C(=O)C2(CCCC2)NC(=O)[C@H](Cc2cccc(OC)c2)N(C)C(=O)[C@H](CCc2ccc(C(F)(F)F)c(Cl)c2)NC(=O)CN(C)C(=O)[C@H](Cc2ccc(C)cc2)N(C)C(=O)[C@@H]2CCN2C(=O)[C@H](C)N(C)C1=O [Compound 1991] ([NMeL]I[NMeA][Aze][NMePhe(4-Me)][Sar][hPhe(3-Cl-4-CF3)][NMePhe(3-OMe)][Ac5c][NMeI][NMeD]-NMe2; lactam N-11)
class name: No
--
compound: CCCOC[C@H]1C(=O)N(C)CC(=O)N[C@@H](CCc2ccc(C(F)(F)F)c(Cl)c2)C(=O)N2CCC[C@H]2C(=O)NC2(CCCC2)C(=O)N(C)[C@@H](C2CCCCC2)C(=O)N(C)[C@H](C(=O)N2C3CCC2COC3)CC(=O)N(C)[C@@H](CC(F)(F)F)C(=O)N[C@@H]([C@@H](C)CC)C(=O)N(C)CC(=O)N(C)CC(=O)N1C [Compound 943] ([NMeAbu(4,4,4-F3)]I[Sar][Sar][NMeS](Propyl)[Sar][hPhe(3-Cl-4-CF3)]P[Ac5c][NMeChg][NMeD]-{3Oxa8azabicyclo(3.2.1)octane}; lactam N-11)
class name: Yes
--
compound: CC[C@H](C)[C@@H]1NC(=O)[C@H](CC(C)C)N(C)C(=O)C[C@@H](C(=O)N(C)C)N(C)C(=O)[C@H]([C@@H](C)CC)N(C)C(=O)[C@H](C)NC(=O)[C@H](Cc2cccnc2)N(C)C(=O)[C@H](CCc2ccc(C(F)(F)F)c(Cl)c2)NC(=O)CN(C)C(=O)[C@H](Cc2ccc(C)cc2)N(C)C(=O)[C@@H]2CCN2C(=O)[C@H](C)N(C)C1=O [Compound 557] ([NMeL]I[NMeA][Aze][NMePhe(4-Me)][Sar][hPhe(3-Cl-4-CF3)][NMe3Pal]A[NMeI][NMeD]-NMe2; lactam N-11)
class name: No
--
compound: CCCOC[C@H]1C(=O)N(C)CC(=O)N[C@@H](CCc2ccc(C(F)(F)F)c(Cl)c2)C(=O)N2CCC[C@H]2C(=O)NC2(CCCC2)C(=O)N(C)[C@@H](C2CCCCC2)C(=O)N(C)[C@H](C(=O)N2C3CCC2COC3)CC(=O)N(C)[C@@H](CCC)C(=O)N[C@@H]([C@@H](C)CC)C(=O)N(C)CC(=O)N(C)CC(=O)N1C [Compound 1971] ([NMeNva]I[Sar][Sar][NMeS](Propyl)[Sar][hPhe(3-Cl-4-CF3)]P[Ac5c][NMeChg][NMeD]-{3Oxa8azabicyclo(3.2.1)octane}; lactam N-11)
class name: No

Origin of measurements: patent US12371454B2
